molecules and their reported selectivity ratio
- PROTOCOL DETAILS: Selectivity index, ratio of CC50 for human H1HeLa cells to EC50 for Human rhinovirus A71 infected in human H1HeLa cells
- Format: toxicity, cell-based
- TEST CONDITIONS: read-out: Ratio CC50/EC50

CHEM SMILES	selectivity ratio
COc1ccc(OCc2ccc(COc3c(Cl)cccc3Cl)cc2)c(Cl)c1	> 400
CCOC(=O)c1cc2ccc(Oc3ccnc(C(=O)NC)c3)c(Cl)c2s1	> 500
CCOC(=O)c1sc2cc(Oc3ccccc3)ccc2c1C	> 59
CCOC(=O)c1sc2cc(OC)ccc2c1C	> 26
CCOC(=O)c1ccc2ccc(Oc3ccnc(C(=O)NC)c3)cc2n1	> 77
CCOC(=O)c1sc2cc(Oc3ccnc(C(=O)NC)c3)ccc2c1C#N	> 190

----------
- PROTOCOL DETAILS: Cytotoxicity against human H1HeLa cells assessed as decrease in cell viability after 3 days by MTT assay
- Format: cell-based, H1-HeLa
CC50 at 72 h overview

CHEM SMILES	CC50 at 72 h
CCOC(=O)c1cc2ccc(Oc3ccnc(C(=O)NC)c3)cc2o1	> 100 µM
CNC(=O)c1cc(Oc2ccc3ccc(C(=O)Oc4ccccc4)cc3c2)ccn1	> 100 µM
CCOC(=O)c1cc2ccc(Oc3ccnc(C(=O)NC)c3)cc2s1	> 100 µM
CCOC(=O)c1cc2cc(Oc3ccnc(C(=O)NC)c3)ccc2cc1O	> 100 µM
CNC(=O)c1cc(Oc2ccc3c(C)c(C(=O)O)sc3c2)ccn1	> 100 µM
CCOC(=O)c1sc2cc(Oc3ccccc3)ccc2c1C	> 100 µM

----------
- PROTOCOL DETAILS: Selectivity index, ratio of CC50 for human HeLa cells to EC50 for human poliovirus 3 infected in human HeLa cells
- Assay type: toxicity, cell-based
- TEST CONDITIONS: read-out: Ratio CC50/EC50
# selectivity ratio values compiled below

CHEM SMILES	selectivity ratio
CCOC(=O)c1cc2ccc(Oc3ccnc(C(=O)NC)c3)c(Cl)c2s1	> 1.7
CCOC(=O)c1cc2ccc(Oc3ccnc(C(=O)NC)c3)cc2s1	> 1.6
CCOC(=O)c1cc2cc(Oc3ccnc(C(=O)NC)c3)ccc2cc1O	> 560

----------
Below, each of the compounds is paired with its reported selectivity ratio value.
- PROTOCOL DETAILS: Selectivity index, ratio of CC50 for human HeLa cells to EC50 for human poliovirus 3 infected in human HeLa cells
- Format: toxicity, cell-based
- TEST CONDITIONS: read-out: Ratio CC50/EC50

CHEM SMILES	selectivity ratio
CCOC(=O)c1ccc2ccc(Oc3ccnc(C(=O)NC)c3)cc2n1	> 53
CCOC(=O)c1sc2cc(Oc3ccnc(C(=O)NC)c3)ccc2c1C	> 1100
CCOC(=O)c1sc2cc(OC)ccc2c1C	> 56

----------
Each entry below carries its recorded selectivity ratio.
- PROTOCOL DETAILS: Selectivity index, ratio of CC50 for human H1HeLa cells to EC50 for Human rhinovirus A71 infected in human H1HeLa cells
- Format: toxicity, cell-based
- TEST CONDITIONS: read-out: Ratio CC50/EC50

COMPOUND	SIGN	selectivity ratio
CCOC(=O)c1cc2cc(Oc3ccnc(C(=O)NC)c3)ccc2cc1O	>	340
CNC(=O)c1cc(Oc2ccc3ccc(C(=O)OC(C)C)cc3c2)ccn1	=	730
CNC(=O)c1cc(Oc2ccc3c(C)c(C(=O)OCc4ccccc4)sc3c2)ccn1	=	13
CCOC(=O)c1cc2ccc(Oc3ccnc(C(=O)NC)c3)cc2o1	>	71
CNC(=O)c1cc(Oc2ccc3c(C)c(C(=O)OCC(C)C)sc3c2)ccn1	=	96
CCOC(=O)c1ccc2cc(Oc3ccnc(C(=O)NC)c3)ccc2c1	=	10000
CNC(=O)c1cc(Oc2ccc3ccc(C(=O)Oc4ccccc4)cc3c2)ccn1	>	12
CCOC(=O)c1cc2ccc(Oc3ccnc(C(=O)NC)c3)cc2s1	>	5300
CNC(=O)c1cc(Oc2ccc3cc(C(=O)OC)sc3c2)ccn1	>	22
CCOC(=O)c1sc2cc(Oc3ccnc(C(=O)NC)c3)ccc2c1CC	=	27
Cc1cc(CCCOc2c(C)cc(-c3noc(C(F)(F)F)n3)cc2C)on1	=	2100
CNC(=O)c1cc(Oc2ccc3c(C)c(C(=O)OC(C)C)n(C)c3c2)ccn1	=	190
CNC(=O)c1cc(Oc2ccc3c(C)c(C(=O)OC(C)C)sc3c2)ccn1	=	1200
CCC(C)OC(=O)c1ccc2ccc(Oc3ccnc(C(=O)NC)c3)cc2c1 (stereo not given)	=	1200
CCOC(=O)c1cc2ccc(Oc3ccccc3)cc2s1	>	36

Source listed as ChEMBL document CHEMBL4011621.
